As shown below, each of these molecules has a reported MC1R/MC4R cAMP EC50 ratio value.
- SYSTEM: human MC4R (Homo sapiens)
- Construct: expressed in transfected cells
- EXPERIMENTAL PROTOCOL: Functional cAMP assay (CisBio HTRF) in BHK cells expressing human MC4R
- Assay type: cell-based
- REPORTED CONDITIONS: MC1R cAMP EC50 divided by MC4R cAMP EC50
Positions of bridges follow the written chain, without caps; N, C: chain ends. Non-standard residues stand in square brackets, D forms with d. Residues, ends and D or L forms follow the SMILES beside them. 2Nal = N[C@@H](Cc1ccc2ccccc2c1)C(=O)O; GABA = NCCCC(=O)O
In your answer, state the number alone without any accompanying words.

| MOLECULE | VAL |
| --- | --- |
| N=C(N)NCCC[C@@H]1NC(=O)[C@@H](Cc2ccccc2)NC(=O)[C@H](Cc2c[nH]cn2)NC(=O)CCCNC(=O)[C@@H]2CSSC[C@H](NC(=O)[C@H](Cc3c[nH]c4ccccc34)NC1=O)C(=O)NCCCC(=O)N[C@@H](Cc1c[nH]cn1)C(=O)N[C@H](Cc1ccccc1)C(=O)N[C@@H](CCCNC(=N)N)C(=O)N[C@@H](Cc1c[nH]c3ccccc13)C(=O)N2 [Chem. 35] (cyclo(C[GABA]H[dF]RWC[GABA]H[dF]RW); disulfide 1-7) | 28 |

Kindly consider the entry below.
input: Enter measured MC1R/MC4R cAMP EC50 ratio, system human MC4R (Homo sapiens), for the molecule shown: C[C@@H]1NC(=O)[C@@H]2CSSC[C@H](NC(=O)[C@H](Cc3ccc4ccccc4c3)NC(=O)[C@H](CCCNC(=N)N)NC(=O)[C@@H](Cc3ccccc3)NC(=O)[C@H](Cc3c[nH]cn3)NC1=O)C(=O)N[C@@H](C)C(=O)N[C@@H](CCCCN)C(=O)N[C@@H](CCCCN)C(=O)N[C@@H](CCCCN)C(=O)N[C@@H](Cc1c[nH]c3ccccc13)C(=O)N2 [Chem. 79] (cyclo([2Nal]CAKKKWCAH[dF]R); disulfide 2-8)
output: 58

* * *

- SYSTEM: human MC4R (Homo sapiens)
- Construct: expressed in transfected cells
- EXPERIMENTAL PROTOCOL: Functional cAMP assay (CisBio HTRF) in BHK cells expressing human MC4R
- Type: cell-based
Positions of bridges follow the written chain, without caps; N, C: chain ends. Non-standard residues stand in square brackets, D forms with d. Residues, ends and D or L forms follow the SMILES beside them. Pen = CC(C)(S)[C@H](N)C(=O)O; Thz = O=C(O)[C@@H]1CSCN1
// reported pEC50 per item
Would you please state pEC50, meaning minus log10 of the concentration in mol/L, as a bare number?

input: Give the observed pEC50 of C[C@@H]1NC(=O)[C@H](C)NC(=O)[C@H](CCCCN)NC(=O)[C@H](CCCCN)NC(=O)[C@H]2NC(=O)[C@H](Cc3c[nH]c4ccccc34)NC(=O)[C@H](Cc3c[nH]cn3)NC(=O)[C@@H](Cc3ccccc3)NC(=O)[C@H](Cc3c[nH]cn3)NC(=O)[C@@H]3CSCN3C(=O)[C@H](CSSC2(C)C)NC(=O)[C@H](Cc2c[nH]c3ccccc23)NC1=O [Chem. 117] (cyclo(AAWC[Thz]H[dF]HW[Pen]KK); disulfide 4-10) for human MC4R (Homo sapiens).
output: 9.70

input: Please report the measured pEC50 for C[C@@H]1NC(=O)[C@H](CCC(=O)O)NC(=O)[C@H](CCC(=O)O)NC(=O)[C@H](C)NC(=O)[C@@H]2CSSC[C@H](NC(=O)[C@H](Cc3c[nH]c4ccccc34)NC1=O)C(=O)N[C@@H](C)C(=O)N[C@@H](Cc1c[nH]cn1)C(=O)N[C@H](Cc1ccccc1)C(=O)N[C@@H](CCCNC(=N)N)C(=O)N[C@@H](Cc1c[nH]c3ccccc13)C(=O)N2 [Chem. 102] (cyclo(AEEAWCAH[dF]RWC); disulfide 6-12) tested on human MC4R (Homo sapiens).
output: 9.31

* * *

- SYSTEM: human MC4R (Homo sapiens, UniProt P32245)
- Construct: expressed in transfected cells
- Sequence (P32245 whole entry): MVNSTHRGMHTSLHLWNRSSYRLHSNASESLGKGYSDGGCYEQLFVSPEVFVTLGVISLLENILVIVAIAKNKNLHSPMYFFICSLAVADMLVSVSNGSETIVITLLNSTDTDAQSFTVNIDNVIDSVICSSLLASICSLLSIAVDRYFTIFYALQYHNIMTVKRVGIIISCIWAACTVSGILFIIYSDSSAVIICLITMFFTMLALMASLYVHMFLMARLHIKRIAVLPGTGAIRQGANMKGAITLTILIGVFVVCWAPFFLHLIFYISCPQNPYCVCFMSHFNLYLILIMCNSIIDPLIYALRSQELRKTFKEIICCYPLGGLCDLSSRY
- EXPERIMENTAL PROTOCOL: 125NDP-α-MSH competitive binding to membranes of BHK cells expressing human MC4 receptor (filtration assay)
- REPORTED CONDITIONS: human MC4R, BHK cell membranes, 125NDP-α-MSH radioligand; read-out: MC4R binding Ki
Positions of bridges follow the written chain, without caps; N, C: chain ends. Non-standard residues stand in square brackets, D forms with d. Residues, ends and D or L forms follow the SMILES beside them. Aib = CC(C)(N)C(=O)O
Ki reference
Just the number please, in nM, no unit attached.

Consider the worked cases shown below.
| MOLECULE | VAL |
| --- | --- |
| CC(C)[C@@H]1NC(=O)[C@@H]2CSSC[C@H](NC(=O)[C@H](Cc3c[nH]c4ccccc34)NC(=O)[C@H](CCCNC(=N)N)NC(=O)[C@@H](Cc3ccccc3)NC(=O)[C@H](Cc3c[nH]cn3)NC1=O)C(=O)N[C@@H](C(C)C)C(=O)N[C@@H](Cc1c[nH]cn1)C(=O)N[C@H](Cc1ccccc1)C(=O)N[C@@H](CCCNC(=N)N)C(=O)N[C@@H](Cc1c[nH]c3ccccc13)C(=O)N2 [Chem. 36] (cyclo(CVH[dF]RWCVH[dF]RW); disulfide 1-7) | 0.12 |
| C[C@@H]1NC(=O)[C@@H]2CSSC[C@H](NC(=O)[C@H](Cc3c[nH]c4ccccc34)NC(=O)[C@H](CCCCN)NC(=O)[C@H](CCCCN)NC(=O)[C@H](CCCCN)NC1=O)C(=O)NC(C)(C)C(=O)N[C@@H](Cc1c[nH]cn1)C(=O)N[C@H](Cc1ccccc1)C(=O)N[C@@H](Cc1c[nH]cn1)C(=O)N[C@@H](Cc1c[nH]c3ccccc13)C(=O)N2 [Chem. 61] (cyclo(AKKKWC[Aib]H[dF]HWC); disulfide 6-12) | 0.22 |

// next entry
input: Output measured Ki for this item: NCCCC[C@@H]1NC(=O)[C@H](CCCCN)NC(=O)[C@H](CCCCN)NC(=O)[C@@H]2CSSC[C@H](NC(=O)[C@H](Cc3c[nH]c4ccccc34)NC(=O)[C@H](CCCCN)NC1=O)C(=O)N[C@@H](CCCCN)C(=O)N[C@@H](Cc1c[nH]cn1)C(=O)N[C@H](Cc1ccccc1)C(=O)N[C@@H](Cc1c[nH]cn1)C(=O)N[C@@H](Cc1c[nH]c3ccccc13)C(=O)N2 [Chem. 77] (cyclo(CKH[dF]HWCKKKKW); disulfide 1-7)
output: 0.72

* * *

- SYSTEM: human MC4R (Homo sapiens)
- Construct: expressed in transfected cells
- EXPERIMENTAL PROTOCOL: Functional cAMP assay (CisBio HTRF) in BHK cells expressing human MC4R
- Assay type: cell-based
Positions of bridges follow the written chain, without caps; N, C: chain ends. Non-standard residues stand in square brackets, D forms with d. Residues, ends and D or L forms follow the SMILES beside them. Ac4c = NC1(C(=O)O)CCC1
Entries and their pEC50 values follow.
Answer as the number alone; pEC50 is minus log10 of concentration in mol/L.

input: Give the value of pEC50 reported for the following: C[C@@H]1NC(=O)[C@@H]2CSSC[C@H](NC(=O)[C@H](Cc3c[nH]c4ccccc34)NC(=O)[C@H](CCCNC(=N)N)NC(=O)[C@@H](Cc3ccccc3)NC(=O)[C@H](Cc3c[nH]cn3)NC1=O)C(=O)N[C@@H](CCCNC(=N)N)C(=O)N[C@@H](Cc1ccccc1)C(=O)N[C@@H](Cc1ccccc1)C(=O)N[C@@H](CC(N)=O)C(=O)N[C@@H](C)C(=O)N2 [Chem. 12] (cyclo(ACAH[dF]RWCRFFN); disulfide 2-8)
output: 10.15

input: Please give measured pEC50 of the following entry: N=C(N)NCCC[C@@H]1NC(=O)[C@@H](Cc2ccccc2)NC(=O)[C@H](Cc2c[nH]cn2)NC(=O)C2(CCC2)NC(=O)[C@@H]2CSSC[C@H](NC(=O)[C@H](Cc3c[nH]c4ccccc34)NC1=O)C(=O)NC1(CCC1)C(=O)N[C@@H](Cc1c[nH]cn1)C(=O)N[C@H](Cc1ccccc1)C(=O)N[C@@H](CCCNC(=N)N)C(=O)N[C@@H](Cc1c[nH]c3ccccc13)C(=O)N2 [Chem. 20] (cyclo([Ac4c]H[dF]RWC[Ac4c]H[dF]RWC); disulfide 6-12)
output: 10.40

* * *

- SYSTEM: human MC4R (Homo sapiens)
- Construct: expressed in transfected cells
- EXPERIMENTAL PROTOCOL: Functional cAMP assay (CisBio HTRF) in BHK cells expressing human MC4R
- Type: cell-based
- REPORTED CONDITIONS: MC1R cAMP EC50 divided by MC4R cAMP EC50
Positions of bridges follow the written chain, without caps; N, C: chain ends. Non-standard residues stand in square brackets, D forms with d. Residues, ends and D or L forms follow the SMILES beside them. Phe(3,4-(OMe)2) = COc1ccc(C[C@H](N)C(=O)O)cc1OC; Aib = CC(C)(N)C(=O)O
MEASURED ENDPOINT: MC1R/MC4R cAMP EC50 ratio
Please give the numeric answer without any surrounding text.

| MOLECULE | SYSTEM | MC1R/MC4R cAMP EC50 ratio |
| --- | --- | --- |
| C[C@@H]1NC(=O)[C@@H]2CSSC[C@H](NC(=O)[C@H](Cc3c[nH]c4ccccc34)NC(=O)[C@H](CCCCN)NC(=O)[C@@H](Cc3ccccc3)NC(=O)[C@H](Cc3c[nH]cn3)NC1=O)C(=O)N[C@@H](C)C(=O)N[C@@H](Cc1c[nH]cn1)C(=O)N[C@H](Cc1ccccc1)C(=O)N[C@@H](CCCCN)C(=O)N[C@@H](Cc1c[nH]c3ccccc13)C(=O)N2 [Chem. 15] (cyclo(AH[dF]KWCAH[dF]KWC); disulfide 6-12) | human MC4R (Homo sapiens) | 60 |
| CC1(C)NC(=O)[C@@H]2CSSC[C@H](NC(=O)[C@H](Cc3c[nH]c4ccccc34)NC(=O)[C@H](CCCNC(=N)N)NC(=O)[C@@H](Cc3ccccc3)NC(=O)[C@H](Cc3c[nH]cn3)NC1=O)C(=O)NC(C)(C)C(=O)N[C@@H](Cc1c[nH]cn1)C(=O)N[C@H](Cc1ccccc1)C(=O)N[C@@H](CCCNC(=N)N)C(=O)N[C@@H](Cc1c[nH]c3ccccc13)C(=O)N2 [Chem. 9] (cyclo([Aib]H[dF]RWC[Aib]H[dF]RWC); disulfide 6-12) | human MC4R (Homo sapiens) | 201 |
| COc1ccc(C[C@@H]2NC(=O)[C@H](CCCNC(=N)N)NC(=O)[C@@H](Cc3ccccc3)NC(=O)[C@H](Cc3c[nH]cn3)NC(=O)[C@@H]3CCCN3C(=O)[C@@H]3CSSC[C@H](NC2=O)C(=O)N[C@@H](C)C(=O)N[C@@H](CCCCN)C(=O)N[C@@H](CCCCN)C(=O)N[C@@H](CCCCN)C(=O)N[C@@H](CCCNC(=N)N)C(=O)N3)cc1OC [Chem. 94] (cyclo(AKKKRCPH[dF]R[Phe(3,4-(OMe)2)]C); disulfide 6-12) | human MC4R (Homo sapiens) | 26 |

Then this molecule:
input: Output reported MC1R/MC4R cAMP EC50 ratio of the molecule C[C@@H]1NC(=O)[C@@H]2CSSC(C)(C)[C@H](NC(=O)[C@H](Cc3c[nH]c4ccccc34)NC(=O)[C@H](CCCNC(=N)N)NC(=O)[C@@H](Cc3ccccc3)NC(=O)[C@H](Cc3c[nH]cn3)NC1=O)C(=O)N[C@@H](C)C(=O)N[C@@H](Cc1c[nH]cn1)C(=O)N[C@H](Cc1ccccc1)C(=O)N[C@@H](CCCNC(=N)N)C(=O)N[C@@H](Cc1c[nH]c3ccccc13)C(=O)N2 [Chem. 63] on human MC4R (Homo sapiens).
output: 42

Where do the numbers come from? From patent US20200223889A1.
